Values from ChEMBL document CHEMBL3988442

test system: Schistosoma mansoni; assay: High throughput screening of compounds against Schistosoma mansoni motility; type: functional; set-up: dose or concentration left out as unconfirmed
quantityName: Percent Effect (%)
Your answer should be a plain number; it is taken to be in %.

- compound: "CCCNC(=O)CNC(=O)CCc1ccccc1Br"
  Percent Effect / %: 24.36
- compound: "O=C(NS(=O)(=O)c1cc(Cl)sc1Cl)c1cccc2c1OCCO2"
  Percent Effect / %: -35.56
- compound: "CCNS(=O)(=O)c1ccc(C)c(C(=O)N(C)Cc2ccco2)c1"
  Percent Effect / %: -32.86
- compound: "Cc1nn(C)c(N2CCOCC2)c1CNC(C)c1cccnc1 (stereo unspecified)"
  Percent Effect / %: -13.95
- compound: "CCOc1ncccc1NC(=O)c1cc2c(s1)CCC2"
  Percent Effect / %: -62.61

Continue with the next compound.
Query: Short answer please: Percent Effect, Schistosoma mansoni, entry Cc1nc[nH]c1CN1C[C@@H]2CC[C@H](C1)N(C(=O)CCc1cnn(C)c1)C2
Reply: -10.53

====

tested on: Plasmodium falciparum; experiment: Calibr Malaria Delayed Death Assay SOP; type: functional, organism-based; conditions: Plasmodium falciparum
quantityName: IC50

Check out these entries, answers already filled in.
- molecule: "CO[C@H]1CCN(Cc2ccoc2)C[C@@H]1Cc1ccccc1.O=C(O)C(F)(F)F"
  readoutValue: "1200 nM"
- molecule: "Fc1ccc(Sc2ccccc2CNC2=NCCN2)cc1.I"
  readoutValue: "1210 nM"

Query: Any idea what its IC50 is? The molecule is COCC(O)CN(C)c1ccnc2cc(Br)ccc12 (configuration not stated)
Reply: 834 nM

Query: Any idea what its IC50 is? The molecule is Cl.OC(CNCc1ccccc1C(F)(F)F)c1ccccc1 (configuration not stated)
Reply: 709 nM

Query: Any idea what its IC50 is? The molecule is Cc1nn(C)c(C)c1CCn1cncc1-c1ccc2c(c1)CC(C)N2C.Cl (configuration not stated)
Reply: 1720 nM

Query: Any idea what its IC50 is? The molecule is Cc1ccccc1CNCc1cc(Cl)ccc1O
Reply: 601 nM

Query: Any idea what its IC50 is? The molecule is Cc1ccc(C2(CN3CCN(Cc4cnc(C)n4C)CC3)CC2)cc1.Cl
Reply: 255 nM

====

assay: In vitro enzyme assay to detect hydrolysis of chlorophenol red-beta-D-[…] directly proportional to the number of Toxoplasma stably expressing beta-galactosidase; type: functional, organism-based, Toxoplasma gondii; details: Toxoplasma gondii
# IC50 per record follows

Check out these entries, answers already filled in.
- compound: "Cc1nn(C)c2c(=O)n(C(C)C)c(NCCc3ccccc3)nc12"
  IC50: "36.1 µM"
- compound: "C1Cc2nc(CCNc3nc(C4CC4)nc4c3CCNCC4)sc2C1"
  IC50: "12.6 µM"
- compound: "OC[C@@H]1CCCN1Cc1ccc(F)c2cccnc12"
  IC50: "3.76 µM"
- compound: "CC(C)CC(=O)N1CC[C@H]2N(C)CC[C@@]2(C(=O)Nc2ccccc2)CC1"
  IC50: "> 50.1 µM"
- compound: "NC1CCN(C(=O)Nc2ccccc2)C1 (stereo unspecified)"
  IC50: "> 50.1 µM"
- compound: "CCCc1ccc(C(=O)N[C@@H]2CCOC[C@H]2O)cc1"
  IC50: "> 50.1 µM"
- compound: "CCn1nc(C)c2nc(C(C)C)nc(NC)c21"
  IC50: "> 50.1 µM"
- compound: "Cc1c(CC(=O)N2CCN(C(C)C)CC2)nnn1-c1ccccc1"
  IC50: "> 50.1 µM"
- compound: "Brc1ccc(N2CCNCC2)nc1"
  IC50: "> 50.1 µM"
- compound: "CCC1=NC(SCC(=O)c2ccc(C)cc2)c2cc(CC)sc2N1 (stereo unspecified)"
  IC50: "> 50.1 µM"

Query: Any idea what its IC50 is? The compound is CS(=O)(=O)Nc1nn(Cc2ccc(F)cc2)cc1Br
Reply: > 50.1 µM

Query: Any idea what its IC50 is? The compound is CC(=O)NCc1cccc(OCc2ccccn2)c1
Reply: > 50.1 µM

Query: Any idea what its IC50 is? The compound is c1nc(N2CCOCC2)nc2c1COCC21CCN(CC2CC2)C1 (stereo unspecified)
Reply: 44 µM

====

experiment: microbe, parasite or virus in culture; details: Mycobacterium tuberculosis, 96 h, read-out: pIC50 (converted)
# IC50 per record follows
Your answer should be a plain number; it is taken to be in µM.

- cpdSmiles: "Brc1cc2c(cc1CN1CCCNCC1)OCO2"
  resultUnits: "µM"
  IC50: 460
- cpdSmiles: "COc1ccc(-c2nc(CCN)co2)cc1"
  resultUnits: "µM"
  IC50: 71.4
- cpdSmiles: "COCc1nn(Cc2csc(C(C)C)n2)c(=O)o1"
  resultUnits: "µM"
  IC50: 22.5
- cpdSmiles: "CC(C)(C)OCCOc1ccc(OCCO)cc1"
  resultUnits: "µM"
  IC50: 161
- cpdSmiles: "CC(C)Cn1ccnc1CNc1ncccc1F"
  resultUnits: "µM"
  IC50: 382

Continue with the next compound.
Query: Any idea what its IC50 is? The compound is CN(C)S(=O)(=O)N(CCO)Cc1ccc(Cl)c(Cl)c1
Reply: 308

====

# pIC50 per record follows
molecular target: ClpP1P2 (Mycobacterium tuberculosis (strain ATCC 25618 / H37Rv), UniProt P9WPC3+P9WPC5); test: in vitro assay to detect presence of AMC directly proportional to the activity of ClpP1P2. GHDDI collaboration.
pIC50: −log10 of the molar value.

Check out these entries, answers already filled in.
- molecule: "Cn1ccc(-c2cc(C(=O)N3CCC(C(N)=O)CC3)c3ccccn23)n1"
  quantityName: "pIC50"
  readoutValue: "< 4.00"
- molecule: "Cn1cnc(-c2nc(C(=O)NCCN3CCCC3)c3ccccn23)c1"
  quantityName: "pIC50"
  readoutValue: "< 4.00"
- molecule: "Cc1cc(C)n(CCCNc2ncnc3c2NC(=O)CN3)n1"
  quantityName: "pIC50"
  readoutValue: "< 4.00"
- molecule: "CC(C)SCCNC(=O)c1cccc2ccnn12"
  quantityName: "pIC50"
  readoutValue: "< 4.00"
- molecule: "CCNCCOc1ccc(-c2cc(N)nc3[nH]ccc23)cc1"
  quantityName: "pIC50"
  readoutValue: "< 4.00"
- molecule: "CN(Cc1nnc(-c2ccco2)o1)C1CCCN(c2cccnn2)C1 (centres undefined)"
  quantityName: "pIC50"
  readoutValue: "< 4.00"
- molecule: "CC(=O)N1CCc2[nH]cnc2C1C1=CCCN(CCn2cccc2)C1 (centres undefined)"
  quantityName: "pIC50"
  readoutValue: "< 4.00"
- molecule: "CN(C)c1ncc(C2Nc3cc(Cl)ccc3C3=NCCCN32)cn1 (centres undefined)"
  quantityName: "pIC50"
  readoutValue: "< 4.00"

Query: Short answer please: pIC50, ClpP1P2 (Mycobacterium tuberculosis (strain ATCC 25618 / H37Rv), UniProt P9WPC3+P9WPC5), entry Cc1cccc(CN(C(=O)NCc2ccccn2)C2CC2)c1
Reply: < 4.00

Query: Short answer please: pIC50, ClpP1P2 (Mycobacterium tuberculosis (strain ATCC 25618 / H37Rv), UniProt P9WPC3+P9WPC5), entry Cn1c(Cn2ncc(N3CCCCC3)cc2=O)nc2ccccc21
Reply: < 4.00

Query: Short answer please: pIC50, ClpP1P2 (Mycobacterium tuberculosis (strain ATCC 25618 / H37Rv), UniProt P9WPC3+P9WPC5), entry N#Cc1c(N)nc2c(c1C1CCOC1)CCc1cc(O)ccc1-2 (centres undefined)
Reply: < 4.00

Query: Short answer please: pIC50, ClpP1P2 (Mycobacterium tuberculosis (strain ATCC 25618 / H37Rv), UniProt P9WPC3+P9WPC5), entry CCCn1[nH]cc/c1=N\C(=O)CN1CCn2c(nnc2C2CC2)C1
Reply: < 4.00

Query: Short answer please: pIC50, ClpP1P2 (Mycobacterium tuberculosis (strain ATCC 25618 / H37Rv), UniProt P9WPC3+P9WPC5), entry Cc1cc(C)n(-c2ccc3nnc(C)n3n2)n1
Reply: < 4.00

Query: Short answer please: pIC50, ClpP1P2 (Mycobacterium tuberculosis (strain ATCC 25618 / H37Rv), UniProt P9WPC3+P9WPC5), entry CC(C)n1ccc(-c2cc(C(=O)NC3CC3)c3ccccn23)n1
Reply: < 4.00

Query: Short answer please: pIC50, ClpP1P2 (Mycobacterium tuberculosis (strain ATCC 25618 / H37Rv), UniProt P9WPC3+P9WPC5), entry COc1ccc(S(N)(=O)=O)cc1C(=O)N(C)Cc1cc(C)on1
Reply: < 4.00

Query: Short answer please: pIC50, ClpP1P2 (Mycobacterium tuberculosis (strain ATCC 25618 / H37Rv), UniProt P9WPC3+P9WPC5), entry COc1ccc(C2CC(=O)Nc3nc(N4CCOCC4)sc32)cc1 (centres undefined)
Reply: < 4.00

Query: Short answer please: pIC50, ClpP1P2 (Mycobacterium tuberculosis (strain ATCC 25618 / H37Rv), UniProt P9WPC3+P9WPC5), entry Cn1cc(-c2c(C#N)c(N)nc3c2CCc2[nH]ccc2-3)cn1
Reply: < 4.00

Query: Short answer please: pIC50, ClpP1P2 (Mycobacterium tuberculosis (strain ATCC 25618 / H37Rv), UniProt P9WPC3+P9WPC5), entry N#Cc1cccnc1N1CCCN(C(=O)CCn2cncn2)CC1
Reply: < 4.00

Query: Short answer please: pIC50, ClpP1P2 (Mycobacterium tuberculosis (strain ATCC 25618 / H37Rv), UniProt P9WPC3+P9WPC5), entry COc1ccccc1-c1ccnc2nc(N3CCCCC3)[nH]c(=O)c12
Reply: < 4.00

Query: Short answer please: pIC50, ClpP1P2 (Mycobacterium tuberculosis (strain ATCC 25618 / H37Rv), UniProt P9WPC3+P9WPC5), entry CCc1nnc(CNC2CCCN(Cc3noc(C4CC4)n3)C2)o1 (centres undefined)
Reply: < 4.00

Query: Short answer please: pIC50, ClpP1P2 (Mycobacterium tuberculosis (strain ATCC 25618 / H37Rv), UniProt P9WPC3+P9WPC5), entry COc1ccc2[nH]c(=O)c(CN(C)CCN3CCCC3)cc2c1
Reply: < 4.00

Query: Short answer please: pIC50, ClpP1P2 (Mycobacterium tuberculosis (strain ATCC 25618 / H37Rv), UniProt P9WPC3+P9WPC5), entry O=C1CCc2cc(NC(=O)C3CCCN3c3nccs3)ccc2N1 (centres undefined)
Reply: < 4.00

Query: Short answer please: pIC50, ClpP1P2 (Mycobacterium tuberculosis (strain ATCC 25618 / H37Rv), UniProt P9WPC3+P9WPC5), entry CCCn1nc2c(cc1=O)CN(CC(=O)N(C)c1nccs1)CC2
Reply: < 4.00

Query: Short answer please: pIC50, ClpP1P2 (Mycobacterium tuberculosis (strain ATCC 25618 / H37Rv), UniProt P9WPC3+P9WPC5), entry CCCOc1ccc(CNc2cncc(-n3cccn3)n2)cc1
Reply: < 4.00
